target: hCA I (Homo sapiens, UniProt P00915); construct: gene CA1; recombinant, obtained in-house; test: stopped-flow CO2 hydration; assay type: biochemical; conditions: read-out: Ki (nM)^b / hCA I
Sequence (P00915 2-261): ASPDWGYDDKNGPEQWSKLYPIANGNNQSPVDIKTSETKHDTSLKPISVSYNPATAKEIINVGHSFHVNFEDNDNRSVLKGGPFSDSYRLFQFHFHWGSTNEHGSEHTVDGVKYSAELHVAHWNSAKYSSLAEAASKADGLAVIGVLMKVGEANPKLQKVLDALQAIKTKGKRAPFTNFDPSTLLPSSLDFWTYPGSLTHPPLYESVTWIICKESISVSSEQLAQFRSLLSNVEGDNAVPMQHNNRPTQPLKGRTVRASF
reported.property: Ki (nM)

Example cases with answers are listed next.
compound | subject.of.test | Ki [nM]
NS(=O)(=O)N1CCOCC1 [2o, Morpholine-4-sulphonamide] | hCA I (Homo sapiens, UniProt P00915) | 59.2
CCN(CC)CCN(C)S(N)(=O)=O [2l, (2-(Diethylamino)ethyl)(methyl)sulfamide] | hCA I (Homo sapiens, UniProt P00915) | 59.6

[1] CCOC(=O)C1CCN(S(N)(=O)=O)CC1
[2] NS(=O)(=O)N1CCC(N2CCCCC2)CC1 [2n, [1,4'-Bipiperidine]-1'-sulphonamide]
**Q:** Could you determine which record has the numerically smaller Ki? Candidates: 1 and 2 Mark your answer with the label of the selected entry.
**A:** 1
(1: 62.8 nM, 2: 497 nM)

---

target: hCA XII (Homo sapiens, UniProt O43570); construct: gene CA12; recombinant, obtained in-house; assay: stopped-flow CO2 hydration; assay type: biochemical; conditions: read-out: Ki (nM)^b / hCA XII
Sequence (O43570 25-354): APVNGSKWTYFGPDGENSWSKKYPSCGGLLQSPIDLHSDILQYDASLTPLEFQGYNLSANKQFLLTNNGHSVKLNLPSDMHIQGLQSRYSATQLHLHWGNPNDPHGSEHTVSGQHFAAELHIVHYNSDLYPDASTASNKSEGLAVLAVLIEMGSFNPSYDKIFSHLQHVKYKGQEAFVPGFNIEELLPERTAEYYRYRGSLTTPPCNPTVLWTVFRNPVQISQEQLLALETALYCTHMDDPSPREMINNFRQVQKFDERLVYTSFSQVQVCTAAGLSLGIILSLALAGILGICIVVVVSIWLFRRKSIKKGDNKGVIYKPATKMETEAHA
reported.property: Ki (nM)

molecule | subject.of.test | test.result
NS(=O)(=O)NCc1cccs1 [2k, (Thiophen-2-ylmethyl) sulfamide] | hCA XII (Homo sapiens, UniProt O43570) | 66.8
CC1Cc2ccccc2N1S(N)(=O)=O (centres unmarked) [2r, 2-Methylindoline-1-sulphonamide] | hCA XII (Homo sapiens, UniProt O43570) | 116
NS(=O)(=O)N1CCc2ccccc21 [2v, Indoline-1-sulphonamide] | hCA XII (Homo sapiens, UniProt O43570) | 95.7

[P] NS(=O)(=O)N1CCCc2ccccc21 [2t, 3,4-Dihydroquinoline-1(2H)-sulphonamide]
[Q] NC(=O)C1CCN(S(N)(=O)=O)CC1 [2p, 1-Sulfamoylpiperidine-4-carboxamide]
**Q:** // pick larger Ki from pair: P vs Q Reply briefly: the label of your chosen item.
**A:** P

---

Target: hCA II (Homo sapiens)
Construct: gene CA2; recombinant, obtained in-house
Assay: stopped-flow CO2 hydration
Format: biochemical
Settings: read-out: Ki (nM)^b / hCA II
Source text: stopped-flow CO2 hydration on hCA II
reported.property: Ki (nM)

Observe how each entry below is paired with its result.
compound | test.result
CCOC(=O)C1CCN(S(N)(=O)=O)CC1 | 42.8
COC(=O)C1CCCN1S(N)(=O)=O (stereo not shown) [2f, Methyl sulfamoylprolinate] | 69.8
NS(=O)(=O)N1CCCc2ccccc21 [2t, 3,4-Dihydroquinoline-1(2H)-sulphonamide] | 89.5
CN(C)CCN(Cc1ccccc1)S(N)(=O)=O [2i, Benzyl (2-(dimethylamino)ethyl)sulfamide] | 39.8
NS(=O)(=O)NCc1cccnc1 [2j, (Pyridin-3-ylmethyl)sulfamide] | 90.2
CC1Cc2ccccc2N1S(N)(=O)=O (stereo not shown) [2r, 2-Methylindoline-1-sulphonamide] | 316

[1] NS(=O)(=O)Nc1cccc2ccccc12 [2u, N-(Naphthalen-1-yl)sulfamide]
[2] NS(=O)(=O)N1CCC(N2CCCCC2)CC1 [2n, [1,4'-Bipiperidine]-1'-sulphonamide]
[3] CN1CCN(S(N)(=O)=O)CC1 [2b, 4-Methylpiperazine-1-sulphonamide]
**Q:** Please rank these compounds by Ki in descending order. Put the labels in the order asked and list them.
**A:** 2, 1, 3

[I] NS(=O)(=O)NC1CCCc2ccccc21 (stereo not shown)
[II] NS(=O)(=O)NCc1ccc(F)cc1 [2c, N-(4-Fluorobenzyl)sulfamide]
**Q:** Please indicate which has the smaller reported Ki: I , or II . Response format: the label of the selected entry.
**A:** I
(I: 42.6 nM, II: 70.5 nM)

[P] NS(=O)(=O)N1CCC(c2ccccc2)CC1 [2h, 4-Phenylpiperidine-1-sulphonamide]
[Q] NS(=O)(=O)Nc1ncccn1 [2s, N-(Pyrimidin-2-yl)sulfamide]
**Q:** Rank P against Q by their Ki values and give the higher one. # respond with the chosen item's label
**A:** P

[P] NS(=O)(=O)N1CCOCC1 [2o, Morpholine-4-sulphonamide]
[Q] NS(=O)(=O)N1CCc2ccccc21 [2v, Indoline-1-sulphonamide]
[R] NS(=O)(=O)N1CCC(O)CC1 [2a, 4-Hydroxypiperidine-1-sulphonamide]
**Q:** # ascending order, key=Ki Note for the reader: the ranking is given by listing the labels in the order requested.
**A:** R, P, Q
(R: 42.7 nM, P: 66.9 nM, Q: 472 nM)
